System: HOP-62 NSCLC
assayName: NCI tumour cell line growth inhibition, 48 h
TGI reference

[
  {
    "recordSmiles": "CC(C)(C)c1ccc2c(c1)S(=O)(=O)Nc1cccc(c1)NS(=O)(=O)c1cc(C(C)(C)C)ccc1OCCOCCO2",
    "TGI": "> 100 µM"
  },
  {
    "recordSmiles": "Nc1nc(Cl)c(/C=N\\O)c(NCC2(CO)CC(=O)C2)n1",
    "TGI": "> 100 µM"
  },
  {
    "recordSmiles": "COc1ccc(-c2c3ccccc3c(-c3ccc(OC)cc3)c3ccccc23)cc1",
    "TGI": "> 100 µM"
  },
  {
    "recordSmiles": "N=C(c1ccc(-c2cn3cc(C(=N)N4CCCC4)ccc3n2)cc1)N1CCCC1",
    "TGI": "> 100 µM"
  },
  {
    "recordSmiles": "CCCCCCC/C(=N\\N=C(N)N)c1ccc(O)cc1",
    "TGI": "3.81 µM"
  }
]

---

Test system: M14 melanoma
assayName: NCI tumour cell line growth inhibition, 48 h

[
  {
    "recordSmiles": "O=c1c2c3c(sc2n2c(CCl)nnc2n1Cc1ccccc1)CCCC3",
    "targetEntity": "M14 melanoma",
    "GI50": "1790 nM"
  },
  {
    "recordSmiles": "COc1cc2c3c(n(CCCN(C)C)c(=O)c2cc1OC)-c1cc2c(cc1C3=O)OCO2",
    "targetEntity": "M14 melanoma",
    "GI50": "422 nM"
  },
  {
    "recordSmiles": "Cc1ccnc2[nH]c(-c3cccc4ccccc34)cc(=O)c12",
    "targetEntity": "M14 melanoma",
    "GI50": "13.2 nM"
  },
  {
    "recordSmiles": "O=c1c2sc3ccccc3c2nnn1-c1ccc(F)c(Cl)c1",
    "targetEntity": "M14 melanoma",
    "GI50": "30000 nM"
  },
  {
    "recordSmiles": "c1cc2ccc3cc2cc1CNCCN1CCNCc2ccc4ccc(cc4c2)CNCCN(CCNC3)CCNCc2ccc3ccc(cc3c2)CNCC1",
    "targetEntity": "M14 melanoma",
    "GI50": "3270 nM"
  },
  {
    "recordSmiles": "N#CCCN1C/C(=C/c2ccccc2)C(=O)/C(=C/c2ccccc2)C1",
    "targetEntity": "M14 melanoma",
    "GI50": "2120 nM"
  }
]

---

Test system: U251 CNS
assayName: NCI tumour cell line growth inhibition, 48 h
TGI reference

[
  {
    "compound": "CC1(C)C(O)OC(O)C1(C)C (stereo unspecified)",
    "targetEntity": "U251 CNS",
    "TGI": "> 100 µM"
  },
  {
    "compound": "C=C[C@H]1CN2CCc3c([nH]c4cc(O)ccc34)[C@@H]2C[C@@H]1C[C@H]1c2[nH]c3ccccc3c2CCN1C",
    "targetEntity": "U251 CNS",
    "TGI": "3.24 µM"
  },
  {
    "compound": "OC(c1ccc(F)cc1)(c1ccc(F)cc1)C1CC1",
    "targetEntity": "U251 CNS",
    "TGI": "59.6 µM"
  },
  {
    "compound": "Cn1c(=O)n2c(=O)n(C)c(=O)n2c1=O",
    "targetEntity": "U251 CNS",
    "TGI": "> 100 µM"
  },
  {
    "compound": "CCCCCCC(C)c1ccc2c(c1)C(=O)c1nc3ccncc3c(=O)n1-2 (stereo unspecified)",
    "targetEntity": "U251 CNS",
    "TGI": "> 45 µM"
  },
  {
    "compound": "COc1ccc(NC(=O)c2sc3nc(C)c(C(=O)/C=C/c4ccccc4)cc3c2N)cc1",
    "targetEntity": "U251 CNS",
    "TGI": "1.68 µM"
  },
  {
    "compound": "CC[C@H](CC[C@@H](C)[C@H]1CC[C@H]2[C@@H]3CC=C4C[C@@H](O)CC[C@]4(C)[C@H]3CC[C@]12C)C(C)C",
    "targetEntity": "U251 CNS",
    "TGI": "> 100 µM"
  },
  {
    "compound": "O=C1C=Cc2c(-c3ccccc3)oc3cccc1c23",
    "targetEntity": "U251 CNS",
    "TGI": "> 100 µM"
  },
  {
    "compound": "Oc1cccc2cc(Cl)cnc12",
    "targetEntity": "U251 CNS",
    "TGI": "> 100 µM"
  },
  {
    "compound": "Cc1ccc(C(=O)CCl)o1",
    "targetEntity": "U251 CNS",
    "TGI": "> 10 µM"
  },
  {
    "compound": "N#Cc1c(-c2ccc(Cl)cc2)cc(-c2cc(O)ccc2O)nc1N",
    "targetEntity": "U251 CNS",
    "TGI": "2.41 µM"
  }
]
